System: HeLa Kyoto;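 note: HeLa Kyoto cells arrested at G1/S by double thymidine block, proteins quantified by TMT10plex mass spectrometry in mild NP-40 versus SDS extracts, three biological replicates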
Assay: solubility in G1/S (NP-40 vs SDS abundance) (log2 ratio); higher = more soluble
Details: cell cycle stage: G1/S
endpoint_name: solubility in G1/S (log2)
Give the value as a plain number.

{"columns": ["sequence_entry", "reported"],
 "data": [
  ["MSIFTPTNQIRLTNVAVVRMKRAGKRFEIACYKNKVVGWRSGVEKDLDEVLQTHSVFVNVSKGQVAKKEDLISAFGTDDQTEICKQILTKGEVQVSDKERHTQLEQMFRDIATIVADKCVNPETKRPYTVILIERAMKDIHYSVKTNKSTKQQALEVIKQLKEKMKIERAHMRLRFILPVNEGKKLKEKLKPLIKVIESEDYGQQLEIVCLIDPGCFREIDELIKKETKGKGSLEVLNLKDVEEGDEKFE [SBDS]", -0.0131],
  ["MFRIEGLAPKLDPEEMKRKMREDVISSIRNFLIYVALLRVTPFILKKLDSI [TOMM5]", -0.518],
  ["MAAPLELSCWGGGWGLPSVHSESLVVMAYAKFSGAPLKVNVIDNTWRGSRGDVPILTTEDDMVSQPAKILNFLRKQKYNADYELSAKQGADTLAYIALLEEKLLPAVLHTFWVESDNYFTVTKPWFASQIPFPLSLILPGRMSKGALNRILLTRGQPPLYHLREVEAQIYRDAKECLNLLSNRLGTSQFFFGDTPSTLDAYVFGFLAPLYKVRFPKVQLQEHLKQLSNLCRFCDDILSSYFRLSLGGISPAGQETVDANLQKLTQLVNKESNLIEKMDDNLRQSPQLPPRKLPTLKLTPAEEENNSFQRLSP [MTX3]", 0.0969]
]}

Inquiry: Name the reported solubility in G1/S (log2) value associated with the sequence MSSKKAKTKTTKKRPQRATSNVFAMFDQSQIQEFKEAFNMIDQNRDGFIDKEDLHDMLASLGKNPTDAYLDAMMNEAPGPINFTMFLTMFGEKLNGTDPEDVIRNAFACFDEEATGTIQEDYLRELLTTMGDRFTDEEVDELYREAPIDKKGNFNYIEFTRILKHGAKDKDD [MYL12B]
Reply text: 0.24
